Measured MIC E. coli values are reported for all entries that follow.
test system: E. coli; assay: MIC values, E. coli (Tables 1-4); assay type: cell-based

[
  {
    "compound": "CO[C@H]1/C=C/O[C@@]2(C)Oc3c(C)c(O)c4c(=O)c(c5oc6c7c(cc(O)c6nc-5c4c3C2=O)N(C)CCCN7C)NC(=O)/C(C)=C\\C=C\\[C@H](C)[C@H](O)[C@@H](C)[C@@H](O)[C@@H](C)[C@H](O)[C@@H]1C",
    "MIC E. coli": ">8 µg/mL"
  },
  {
    "compound": "CCOc1c(N2CCN(CC3CC3)CC2)ccc2nc3c4c5c6c(C)c(O)c4c(=O)c(c-3oc12)NC(=O)/C(C)=C\\C=C\\[C@H](C)[C@H](O)[C@@H](C)[C@@H](O)[C@@H](C)[C@H](O)[C@H](C)[C@@H](OC)/C=C/O[C@@](C)(O6)C5=O",
    "MIC E. coli": ">8 µg/mL"
  }
]

Give a short answer stating reported MIC E. coli for COC1C=COC2(C)Oc3c(C)c(O)c4c(=O)c(c5n(C)c6cc(N7CC(C)NC(C)C7)ccc6nc-5c4c3C2=O)NC(=O)C(C)=CC=CC(C)C(O)C(C)C(O)C(C)C(O)C1C (mixture of isomers) . >8 µg/mL
